Tested on: OVCAR-5 ovarian
Method summary: NCI-60 one-dose screen, 48 h
Test settings: 10 µM unless noted
This is part of a sample that, as a whole, favours compounds with a hit. Of some 83,000 tested, about 20% had one in any assay. The source made the active and inactive calls. Rule for the calls: active = growth percent below 10; inactive = the rest.
Write down the outcome that applies. Available outcomes: y = active, n = inactive

Worked examples, 10 compounds total:
| Given smiles | Class assignment |
| --- | --- |
| C#CCOc1cccc(Nc2ncnc3ccc(NC(=O)CCl)cc23)c1 | y |
| CCCCC(=O)c1ccco1 | n |
| O=C(c1cc2ccccc2o1)c1nn(-c2ccccc2)/c(=N/N=Cc2cn(-c3ccccc3)nc2-c2cc3ccccc3oc2=O)s1 | n |
| CCOC(=O)c1cn2ncnc(Oc3ccc(NC(=O)NC4CCCCC4)c(Cl)c3)c2c1C | n |
| CCN(CC)CCOc1ccc(C(=C(C)c2ccc(Cl)cc2)c2ccc(OCCN(CC)CC)cc2)cc1 | y |
| CN(C)CCNc1nc2c3cc(Cl)ccc3nn2c2ccccc12 | n |
| CC(=O)N(N=Nc1ccccc1)c1cccc2ccccc12 | n |
| CCOC(=O)C(=Cc1cccc(Br)c1)C(=O)OCC | n |
| O=CC1(C2(C=O)c3ccccc3-c3ccccc32)c2ccccc2-c2ccccc21 | y |
| N#Cc1c(NC(=O)c2ccccc2)sc2c1CCC(=O)C2 | n |

Switching to the query record.
Problem: Just curious, what result did O=C(Nc1cc(Cl)ccc1O)c1ccc(Nc2ccnc(C(F)(F)F)c2)cc1 get here?
Result: n

====

System: NCI-H322M lung
Method summary: NCI-60 one-dose screen, 48 h
Test settings: 10 µM unless noted
The panel holds about 83,000 compounds, 20% with a hit somewhere; the sample as a whole holds those more often. Active and inactive are the calls of the source. The calls were made as follows: active = growth percent below 10; inactive = the rest.
Write down the outcome that applies. Available outcomes: active, inactive

| Compound | Class assignment |
| --- | --- |
| Cc1cc(=O)[nH]c2c(C#N)cnn12 | inactive |
| N#Cc1c(-c2ccc(Cl)cc2)nc(SCC(=O)NC2=NN=C(c3ccccc3)CS2)[nH]c1=O | inactive |
| CC(=O)Nc1nc2ccc(NS(=O)(=O)c3cccc4c(N(C)C)cccc34)cc2[nH]1 | inactive |

Problem: Just curious, what result did CCn1c(=S)sc2c(Nc3ccc(F)cc3)nc(-c3cccnc3)nc21 get here?
Result: inactive

Problem: Now the same for C/C(=C(/c1ccc(Cl)cc1)c1ccc(OCCN2CCCC2)cc1)c1ccc(Cl)cc1
Result: inactive

Problem: Now the same for O=C1/C(=C/c2ccc(-c3ccc(Br)cc3)o2)SC(=S)N1CCc1ccc(O)cc1
Result: inactive

Problem: Now the same for CCCCOC(=O)OCc1cc(=O)c(O)co1
Result: inactive

Problem: Now the same for CN[C@]12CC3(C=CC(=O)C=C3)O[C@@]1(Cc1ccc(OC)cc1)N(C)C(=O)N2
Result: inactive

Problem: Now the same for CCCCN[C@H]1CC[C@@]2(C)[C@@H](CC[C@@]3(C)[C@H]2[C@H](O)C[C@H]2/C(=C(\CCC=C(C)C)C(=O)OC)[C@@H](OC(C)=O)C[C@@]23C)[C@@H]1C
Result: inactive

Problem: Now the same for COc1ccc(OC)c(-c2c(C#N)c(-c3cccs3)nc3c2c(-c2ccccc2)nn3-c2ccccc2)c1
Result: inactive

Problem: Now the same for Cn1ccc2c3c(ccc21)CC3=O
Result: inactive

====

Tested on: OVCAR-3 ovarian
Method summary: NCI-60 one-dose screen, 48 h
Test settings: 10 µM unless noted
About 83,000 compounds went through this panel and 20% of them were active in at least one assay; those are over-represented in the sample as a whole. Active and inactive are the calls of the source. How the source made its calls: active means growth percent below 10; inactive means the rest.
Write down the outcome that applies. Available outcomes: 1 (yes) = active, 0 (no) = inactive

Worked examples, 5 compounds total:
| Compound | Class assignment |
| --- | --- |
| CO[C@]12C=C/C(=C(/C(=O)OCc3cccnc3)C(=O)CCCCCCCC[C@@]3(OC)C=C/C(=C(/C(=O)OCc4cccnc4)C(=O)CCCCCCCC1)O3)O2 | 1 (yes) |
| O=C(O)c1[nH]c(=O)[nH]c(=O)c1[N+](=O)[O-] | 0 (no) |
| C=C1C(=O)O[C@H]2[C@H]1CC/C(COC(=O)CSCCSCC(=O)OC/C1=C/CC[C@@]3(C)O[C@H]3[C@H]3OC(=O)C(=C)[C@@H]3CC1)=C\CC[C@@]1(C)O[C@@H]21 | 1 (yes) |
| CCCCCCCCn1ccc2cc(NC(=O)Cn3cc(CN4CCCCC4)nn3)ccc21 | 0 (no) |
| O=[N+]([O-])c1ccc(-c2nc(N3CCOCC3)c3c4c(sc3n2)CCCC4)cc1 | 0 (no) |

Problem: Just curious, what result did Fc1cc2c(cc1Cl)N(c1ncnc3ccc(-c4cnc5[nH]ncc5c4)cc13)CC2 get here?
Result: 0 (no)

Problem: Now the same for Cc1ccc(-c2nc3nc(-c4ccc(F)cc4)nc(N4CCNCC4)c3o2)cc1
Result: 1 (yes)

Problem: Now the same for O=C(Nc1cccc([N+](=O)[O-])c1)c1cc2ccccc2cc1O
Result: 1 (yes)

====

System: NCI-H23 lung
Method summary: NCI-60 one-dose screen, 48 h
Test settings: 10 µM unless noted
Compounds without any hit were thinned out: in the full panel of roughly 83,000, 20% have a hit. Active and inactive are the calls of the source. Rule for the calls: active = growth percent below 10; inactive = the rest.
Write down the outcome that applies. Available outcomes: active, inactive

Problem: Just curious, what result did CC1(c2ccccc2O)NN=C(/N=C/c2cccc([N+](=O)[O-])c2)N1C(Cc1c[nH]c2ccccc12)C(=O)O (stereo not given) get here?
Result: inactive

Problem: Now the same for CCCCCCCCn1ccc2cc(NC(=O)CN3CCN(c4nc(C)cc(Cl)n4)CC3)ccc21
Result: inactive

Problem: Now the same for Cn1cc(-c2csc(-c3ccc(Cl)cc3)n2)c2cccnc21
Result: active

Problem: Now the same for COc1ccc(C(=S)N2CCN(c3ccccc3Cl)CC2)cc1OC
Result: inactive

Problem: Now the same for CC(C)c1ccc(NC(=O)Nc2ccc(NC(=O)CCCC(=O)NOCc3ccccc3)cc2)cc1
Result: inactive

Problem: Now the same for O=C1NCCC12CCN(c1c(Cl)cncc1-c1ccc(O)cc1)CC2
Result: inactive

Problem: Now the same for CN(CCn1sc(=O)n(Cc2ccccc2)c1=O)Cc1ccc2c(Cl)cc(Cl)c(O)c2n1
Result: inactive

Problem: Now the same for C#CCOc1cccc(Nc2ncnc3c(NC(=O)C=C)cccc23)c1
Result: inactive

Problem: Now the same for O=C1/C(=C/c2ccc(-c3ccc(Br)cc3)o2)SC(=S)N1CCc1ccc(O)cc1
Result: inactive

Problem: Now the same for CN1CCN(Cc2ccc3c(NNC(=O)c4ccccc4)nc4cc(F)ccc4n23)CC1
Result: inactive

====

System: SK-MEL-28 melanoma
Method summary: NCI-60 one-dose screen, 48 h (100 = growth as untreated, 0 = no growth, -100 = all killed)
Test settings: 10 µM unless noted
About 83,000 compounds went through this panel and 20% of them were active in at least one assay; those are over-represented in the sample as a whole.
Value type: growth (%)
Just the number in %, nothing appended.

| Compound | Measurement unit | Result number |
| --- | --- | --- |
| CCOC(=O)CNP(=O)(OC[C@@H](Cc1ccccc1)NC(=O)c1cc2ccccc2s1)Oc1ccccc1 (stereo partly specified) | % | 77 |
| COc1ccc2nc3ccc(OC)cc3c(SCCCN)c2c1 | % | 121 |
| Cc1ccc(C(C(N)=O)C(C(N)=O)c2ccccc2)cc1 (stereo unspecified) | % | 123 |
| COc1ccc(/C=C2\COc3ccc(O)c(O)c3C2=O)cc1 | % | 57.4 |
| O=C(c1ccc(Cl)cc1)N1CCN(c2ccnc3cc(Cl)ccc23)CC1 | % | 99.6 |

Problem: Lab request: please report growth under test system SK-MEL-28 melanoma for O=C1Nc2ccc(Br)cc2/C1=N/c1n[nH]c(=S)s1
Result: 114

Problem: Now the same for CCC(C)N(c1ccc(Cl)cc1)c1nc(-c2ccc(Br)cc2)cs1 (stereo unspecified)
Result: 111

Problem: Now the same for COc1cc(OC)c2sc(-c3ccc(-n4cncc4-c4ccc(OC)c(OC)c4)cc3)nc2c1
Result: 71.8

Problem: Now the same for O=C1c2cc(Cl)ccc2S(=O)(=O)c2c(NCCCNCCO)nc3ccccc3c21
Result: 6.11

Problem: Now the same for O=C(O)c1[nH]c(=O)[nH]c(=O)c1[N+](=O)[O-]
Result: 121

Problem: Now the same for N#Cc1nc(-c2ccccc2)oc1S(=O)(=O)N1CCOCC1
Result: 106

====

Test system: T-47D breast
Method summary: NCI-60 one-dose screen, 48 h (100 = growth as untreated, 0 = no growth, -100 = all killed)
Test settings: 10 µM unless noted
Experimental: Growth inhibition of the T-47D human tumor cell line is measured as a screen for anti-cancer activity. Cells are grown in 96 well plates and exposed to the test compound for 48 hours. Compounds are tested at a single concentration, which is 10^-5 M for most compounds. The reported endpoint is percent growth (GI% or GIPRCNT), where numbers from 0 - 100% represent growth inhibition, and numbers from -100% - 0 represent cell death. For example, a value of 40 represents 60% growth inhibition. […]
About 83,000 compounds went through this panel and 20% of them were active in at least one assay; those are over-represented in the sample as a whole.
Labelling: growth reported below 40% becomes true (1); at or above becomes false (0).

| Compound | Class assignment |
| --- | --- |
| CCN(c1ccc(Cl)cc1)c1nc(-c2ccc([N+](=O)[O-])cc2)cs1 | false (0) |
| COc1ccc(C/C(C)=C(/c2ccc(OCCN3CCCCC3)cc2)c2ccc(OC(=O)NCc3ccccc3)cc2)cc1 | true (1) |
| O=C(OCc1ccc2c(Cl)cc(Cl)c(O)c2n1)n1cncn1 | true (1) |
| C=C1C(=O)O[C@H]2[C@H]1CC/C(COC(=O)N[C@H]1C[C@H](O[C@H]3C[C@](O)(C(=O)CO)Cc4c(O)c5c(c(O)c43)C(=O)c3c(OC)cccc3C5=O)O[C@@H](C)[C@H]1O)=C\CC[C@@]1(C)O[C@@H]21 | true (1) |
| CC(C)c1ccc(NC(=O)Nc2ccc(NC(=O)CCCC(=O)NOCc3ccccc3)cc2)cc1 | false (0) |

Problem: Quick check: growth of Nc1nc(=S)c2ncn(C3OC(COP(=O)(O)O)C(O)C3O)c2[nH]1 (configuration not stated) under 40%?
Result: true (1)

Problem: Now the same for CN1CCN(c2ccc(NC(=O)c3nc4ccc5[nH]ncc5c4c4c3CCCC4)cc2C(F)(F)F)CC1
Result: false (0)
